Assay: Clearance in male Sprague-Dawley CD rat at 1 mg/kg, iv
Type: ADME, organism-based
Design: dose 1 mg/kg, route intravenous
Details: in vivo
metric: clearance (mL/min/kg)
Give your result in mL/min/kg as a bare value.

Prompt line: For the compound COCCN(CCOC)c1nc(C)nc2c(-c3ccc(OC)cc3C)c(C)nn12 , report clearance.
Response line: 20

###

# key: entry, value: pIC50
Molecular target: UniProtKB P34998
Sequence (P34998 whole entry): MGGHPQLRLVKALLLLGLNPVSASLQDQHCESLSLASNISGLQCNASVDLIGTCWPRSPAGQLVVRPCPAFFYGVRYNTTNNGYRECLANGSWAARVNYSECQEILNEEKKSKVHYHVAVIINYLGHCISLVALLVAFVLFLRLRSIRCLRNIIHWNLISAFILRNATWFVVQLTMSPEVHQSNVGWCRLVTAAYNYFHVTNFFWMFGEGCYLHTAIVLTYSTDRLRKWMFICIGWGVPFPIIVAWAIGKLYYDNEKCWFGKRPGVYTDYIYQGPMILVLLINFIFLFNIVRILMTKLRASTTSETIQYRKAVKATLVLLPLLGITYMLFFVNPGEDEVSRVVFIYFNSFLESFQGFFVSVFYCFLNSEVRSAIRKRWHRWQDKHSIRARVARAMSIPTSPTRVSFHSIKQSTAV
Assay: Binding affinity to CRF1 receptor in human IMR32 cells
Value format note: pIC50 is -log10 of concentration (mol/L); just state the number.

# example entries with known answers
>>> numericvalue("COCCN(CCOC)c1nc(C)nc2c(-c3ccc(OC)cc3C)c(C)nn12")
8.33
>>> numericvalue("COCCN(CCOC)c1nc(C)nc2c(-c3cc(C)c(OC)cc3C)c(C)nn12")
7.82
>>> numericvalue("CC[C@@H](C)Nc1nc(C)nc2c(-c3c(C)cc(OC)cc3OC)c(C)nn12")
8.47

Now turn to the next molecule.
Prompt line: For the molecule CCC(CC)Nc1nc(C)nc2c(-c3cc(F)c(OC)cc3Cl)c(C)nn12 , report pIC50.
Response line: 8.92

###

Target: Corticotropin-releasing factor receptor 1 (Homo sapiens, UniProt P34998)
Sequence (P34998 whole entry): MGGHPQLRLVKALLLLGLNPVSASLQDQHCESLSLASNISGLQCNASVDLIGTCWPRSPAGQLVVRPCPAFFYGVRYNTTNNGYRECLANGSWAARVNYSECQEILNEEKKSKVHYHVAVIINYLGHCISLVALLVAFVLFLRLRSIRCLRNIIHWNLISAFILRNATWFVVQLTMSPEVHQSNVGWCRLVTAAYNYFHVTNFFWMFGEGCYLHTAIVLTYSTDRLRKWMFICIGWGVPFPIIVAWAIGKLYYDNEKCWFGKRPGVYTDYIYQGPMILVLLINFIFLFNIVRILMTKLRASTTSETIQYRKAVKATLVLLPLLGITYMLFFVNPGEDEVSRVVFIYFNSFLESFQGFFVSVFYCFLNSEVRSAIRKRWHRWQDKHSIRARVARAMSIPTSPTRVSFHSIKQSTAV
Test: Binding affinity to CRF1 receptor in human IMR32 cells
Format: cell-based, IMR-32
metric: IC50 (nM)
Give your result in nM as a bare value.

Prompt line: Fill in IC50 for H-DLTFHLLREMLEMAKAEQEAEQAALNRLLLEEA-NH2 tested with Corticotropin-releasing factor receptor 1 (Homo sapiens, UniProt P34998).
Response line: 2

###

Molecular target: Corticotropin-releasing factor receptor 1 (Rattus norvegicus, UniProt P35353)
Sequence (P35353 whole entry): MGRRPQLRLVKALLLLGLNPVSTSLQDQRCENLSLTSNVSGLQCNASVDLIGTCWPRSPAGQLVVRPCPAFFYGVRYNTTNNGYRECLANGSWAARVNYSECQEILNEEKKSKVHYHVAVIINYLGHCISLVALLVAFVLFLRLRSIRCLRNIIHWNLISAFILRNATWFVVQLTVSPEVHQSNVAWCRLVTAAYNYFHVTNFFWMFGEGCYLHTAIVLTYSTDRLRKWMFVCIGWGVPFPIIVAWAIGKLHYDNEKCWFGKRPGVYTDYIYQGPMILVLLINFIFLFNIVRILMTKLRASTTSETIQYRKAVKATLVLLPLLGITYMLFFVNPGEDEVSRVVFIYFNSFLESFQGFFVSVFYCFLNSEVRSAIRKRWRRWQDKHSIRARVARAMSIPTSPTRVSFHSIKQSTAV
Test: Displacement of [125I]Tyr0-ovine CRF from CRF1 receptor in rat cortical membrane by gamma counting
Assay type: cell membranes
metric: IC50

Prompt line: For the substance H-DLTFHLLREMLEMAKAEQEAEQAALNRLLLEEA-NH2 , report IC50.
Response line: 1.24 nM

###

Biological target: Alpha-1B adrenergic receptor (Homo sapiens, UniProt P35368)
Sequence (P35368 whole entry): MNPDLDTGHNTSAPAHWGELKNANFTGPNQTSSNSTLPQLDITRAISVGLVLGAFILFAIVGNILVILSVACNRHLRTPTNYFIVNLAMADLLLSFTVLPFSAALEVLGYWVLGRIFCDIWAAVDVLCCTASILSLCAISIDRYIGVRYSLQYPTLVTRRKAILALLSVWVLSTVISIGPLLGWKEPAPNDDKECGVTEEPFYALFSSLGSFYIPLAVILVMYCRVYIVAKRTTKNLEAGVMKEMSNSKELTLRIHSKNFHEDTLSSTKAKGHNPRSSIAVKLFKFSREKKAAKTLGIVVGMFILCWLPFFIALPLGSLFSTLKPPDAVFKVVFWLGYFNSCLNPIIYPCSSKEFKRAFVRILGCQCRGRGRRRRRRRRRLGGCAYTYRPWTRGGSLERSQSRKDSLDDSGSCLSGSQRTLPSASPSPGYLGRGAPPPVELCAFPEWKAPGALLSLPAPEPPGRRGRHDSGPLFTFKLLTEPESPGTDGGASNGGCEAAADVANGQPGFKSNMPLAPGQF
pIC50: −log10 of the molar value.
metric: pIC50

Prompt line: Fill in pIC50 for CC[C@@H](C)Nc1nc(C)nc2c(-c3c(C)cc(OC)cc3OC)c(C)nn12 tested with Alpha-1B adrenergic receptor (Homo sapiens, UniProt P35368).
Response line: < 6.00

###

Test: Tmax in male Sprague-Dawley CD rat at 5 mg/kg, po
Format: ADME, organism-based
Design: dose 5 mg/kg, route oral
Settings: in vivo
metric: Tmax (min)
Give your result in min as a bare value.

Prompt line: For the molecule COCCN(CCOC)c1nc(C)nc2c(-c3ccc(OC)cc3C)c(C)nn12 , report Tmax.
Response line: 30

###

Experiment: Oral bioavailability in male Sprague-Dawley CD rat at 5 mg/kg relative to 1 mg/kg, iv dose
Assay type: ADME, organism-based
Details: in vivo
metric: bioavailability (%)
Give your result in % as a bare value.

Prompt line: For the compound COCCN(CCOC)c1nc(C)nc2c(-c3ccc(OC)cc3C)c(C)nn12 , report bioavailability.
Response line: 51

###

Tested on: Rattus norvegicus
Experiment: Hepatic blood flow in iv dosed female Sprague-Dawley CD rat
Type: ADME, organism-based, Liver
Settings: in vivo
metric: QH (mL/min/kg)
Give your result in mL/min/kg as a bare value.

Prompt line: For the compound COCCN(CCOC)c1nc(C)nc2c(-c3ccc(OC)cc3C)c(C)nn12 , report QH.
Response line: 55

###

Biological target: Alpha-2C adrenergic receptor (Homo sapiens)
Sequence (P18825 whole entry): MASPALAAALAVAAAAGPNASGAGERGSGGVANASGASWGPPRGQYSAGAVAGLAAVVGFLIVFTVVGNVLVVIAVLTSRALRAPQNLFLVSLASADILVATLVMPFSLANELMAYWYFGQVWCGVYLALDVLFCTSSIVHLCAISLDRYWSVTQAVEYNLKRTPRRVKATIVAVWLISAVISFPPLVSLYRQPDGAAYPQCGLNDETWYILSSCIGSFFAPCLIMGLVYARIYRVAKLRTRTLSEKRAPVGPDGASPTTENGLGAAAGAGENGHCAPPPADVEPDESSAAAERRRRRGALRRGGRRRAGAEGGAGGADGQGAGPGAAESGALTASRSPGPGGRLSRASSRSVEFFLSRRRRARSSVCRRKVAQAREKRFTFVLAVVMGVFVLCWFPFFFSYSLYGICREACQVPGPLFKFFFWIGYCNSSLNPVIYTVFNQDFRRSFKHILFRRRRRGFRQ
# key: entry, value: IC50

>>> result("COCCN(CCOC)c1nc(C)nc2c(-c3cc(C)c(OC)cc3C)c(C)nn12")
"> 1000 nM"

Now turn to the next molecule.
Prompt line: Fill in IC50 for CCC(CC)Nc1nc(C)nc2c(-c3cc(F)c(OC)cc3Cl)c(C)nn12 tested with Alpha-2C adrenergic receptor (Homo sapiens).
Response line: > 1000 nM

###

Tested on: Canis familiaris
Experiment: Ex vivo displacement of [125I]Tyr0-ovine CRF from CRF1 receptor in dog at 5 mg/kg, po measured in plasma after 2 hrs
Format: functional
Details: Canis lupus familiaris
Quick rule: inhibition in vivo at 5 mg/kg of at least 80% means yes, below that means no.

Recorded results for 7 molecules are shown here.
>>> label("COc1cc(C)c(-c2c(C)nn3c(NC4CCC4)nc(C)nc23)c(OC)c1")
"no"
>>> label("CC[C@@H](C)Nc1nc(C)nc2c(-c3c(C)cc(OC)cc3OC)c(C)nn12")
"no"
>>> label("COCCN(CCOC)c1nc(C)nc2c(-c3cc(C)c(OC)cc3C)c(C)nn12")
"yes"
>>> label("COCCN(CCOC)c1nc(C)nc2c(-c3ccc(OC)cc3C)c(C)nn12")
"no"
>>> label("CCN(CC)c1nc(C)nc2c(-c3c(C)cc(OC)cc3OC)c(C)nn12")
"no"
>>> label("CCC(CC)Nc1nc(C)nc2c(-c3cc(F)c(OC)cc3Cl)c(C)nn12")
"yes"
>>> label("CC[C@H](C)Nc1nc(C)nc2c(-c3c(C)cc(OC)cc3OC)c(C)nn12")
"no"

Next:
Prompt line: hey, is inhibition in vivo at 5 mg/kg for this one >= 80%? CCN(CCOC)c1nc(C)nc2c(-c3c(C)cc(OC)cc3OC)c(C)nn12
Response line: yes

###

Assay: Clearance in Beagle dog at 5 mg/kg, iv
Format: ADME, organism-based, Canis lupus familiaris
Set-up: dose 5 mg/kg, route intravenous
Conditions: in vivo
metric: clearance
Please don't drop the unit; write it after the number.

>>> result("COCCN(CCOC)c1nc(C)nc2c(-c3ccc(OC)cc3C)c(C)nn12")
"20 mL/min/kg"

Now turn to the next compound.
Prompt line: For the compound COCCN(CCOC)c1nc(C)nc2c(-c3cc(C)c(OC)cc3C)c(C)nn12 , report clearance.
Response line: 11 mL/min/kg

###

Experiment: Elimination half life in Beagle dog at 1 mg/kg, iv
Type: ADME, organism-based, Canis lupus familiaris
Design: dose 1 mg/kg, route intravenous
Conditions: in vivo, read-out: beta t1/2 (converted)
metric: half-life (h)
Give your result in h as a bare value.

Prompt line: For the molecule CC[C@@H](C)Nc1nc(C)nc2c(-c3c(C)cc(OC)cc3OC)c(C)nn12 , report half-life.
Response line: 33.3

###

Assay: Tmax in Beagle dog at 20 mg/kg, po
Assay type: ADME, organism-based, Canis lupus familiaris
Parameters: dose 20 mg/kg, route oral
Details: in vivo
metric: Tmax

Prompt line: For the compound CC[C@@H](C)Nc1nc(C)nc2c(-c3c(C)cc(OC)cc3OC)c(C)nn12 , report Tmax.
Response line: 4 h

###

Test: Cmax in Beagle dog at 20 mg/kg, po
Type: ADME, organism-based, Canis lupus familiaris
Set-up: dose 20 mg/kg, route oral
Details: in vivo
metric: Cmax (nM)
Give your result in nM as a bare value.

Prompt line: For the compound CC[C@@H](C)Nc1nc(C)nc2c(-c3c(C)cc(OC)cc3OC)c(C)nn12 , report Cmax.
Response line: 1940
